Reported Bmax (MFI) values for the following binders.
Target: T1, human NKp46 (human, UniProt O76036 22-304)
T1 construct: also called CD335; NCR1
T1 sequence (O76036 22-304 Q82K): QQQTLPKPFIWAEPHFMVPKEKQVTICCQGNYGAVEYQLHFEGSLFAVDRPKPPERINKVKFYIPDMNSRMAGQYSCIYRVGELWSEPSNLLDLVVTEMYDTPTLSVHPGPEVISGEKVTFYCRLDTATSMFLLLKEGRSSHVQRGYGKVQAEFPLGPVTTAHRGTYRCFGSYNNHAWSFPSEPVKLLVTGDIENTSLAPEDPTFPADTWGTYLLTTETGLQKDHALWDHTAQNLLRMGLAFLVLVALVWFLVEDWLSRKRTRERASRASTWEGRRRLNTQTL
Assay: flow cytometry, HEK293F cells transfected with human NKp46
Unit MFI implied. Number only.

Known results for binders:
Binder	Bmax (MFI)
NKp46-hz5D7v8-Fc* (Fc fusion, VHH-Fc fusion with an IgG1 Fc lacking a hinge (Fc*); also called NKp46-bz5D7v8-Fc*) EVQLVESGGGEVQPGGSLRLSCAASGRTFASAAMGWFRQAPGKEREFVAAISRSVGDTYYADSVKGRFTISRDNAKNTVYLQMSSLRAEDTAVYYCAAVVPTYGNNIYVHSAAYNYWGQGTLVTVKPGGGGPSVFLFPPKPKDTLMISRTPEVTCVVVDVSHEDPEVKFNWYVDGVEVHNAKTKPREEQYNSTYRVVSVLTVLHQDWLNGKEYKCKVSNKALPAPIEKTISKAKGQPREPQVYTLPPSRDELTKNQVSLTCLVKGFYPSDIAVEWESNGQPENNYKTTPPVLDSDGSFFLYSKLTVDKSRWQQGNVFSCSVMHEALHNHYTQKSLSLSPG	930000
NKp46-hz5D7v1-Fc* (Fc fusion, VHH-Fc fusion with an IgG1 Fc lacking a hinge (Fc*)) EVQLVESGGGEVQPGGSLRLSCAASGRTFASAAMGWFRQAPGKGREFVAAISRSDDTYYAESVKGRFTISRDNAKNTLYLQMSSLRAEDTAVYYCAAVVPTYGNNIYVHSAAYNYWGQGTLVTVKPGGGGPSVFLFPPKPKDTLMISRTPEVTCVVVDVSHEDPEVKFNWYVDGVEVHNAKTKPREEQYNSTYRVVSVLTVLHQDWLNGKEYKCKVSNKALPAPIEKTISKAKGQPREPQVYTLPPSRDELTKNQVSLTCLVKGFYPSDIAVEWESNGQPENNYKTTPPVLDSDGSFFLYSKLTVDKSRWQQGNVFSCSVMHEALHNHYTQKSLSLSPG	790000
NKp46-hz5D7v7-Fc* (Fc fusion, VHH-Fc fusion with an IgG1 Fc lacking a hinge (Fc*); also called NKp46-bz5D7v7-Fc*) EVQLVESGGGEVQPGGSLRLSCAASGRTFASAAMGWFRQAPGKEREFVAAISRSGDTYYADSVKGRFTISRDNAKNTVYLQMSSLRAEDTAVYYCAAVVPTYGNNIYVHSAAYNYWGQGTLVTVKPGGGGPSVFLFPPKPKDTLMISRTPEVTCVVVDVSHEDPEVKFNWYVDGVEVHNAKTKPREEQYNSTYRVVSVLTVLHQDWLNGKEYKCKVSNKALPAPIEKTISKAKGQPREPQVYTLPPSRDELTKNQVSLTCLVKGFYPSDIAVEWESNGQPENNYKTTPPVLDSDGSFFLYSKLTVDKSRWQQGNVFSCSVMHEALHNHYTQKSLSLSPG	866000

Kindly consider the entry below.
Quick one: Bmax (MFI) of NKp46-hz5D7v11-Fc* (Fc fusion, VHH-Fc fusion with an IgG1 Fc lacking a hinge (Fc*)) EVQLVESGGGEVQPGGSLRLSCAASGRTFASAAMGWFRQAPGKEREFVAAISRSDDTYYADSVKGRFTISRDNAKNTVYLQMSSLRAEDTAVYYCAAVVPTYGSNIYVYSAAYNYWGQGTLVTVKPGGGGPSVFLFPPKPKDTLMISRTPEVTCVVVDVSHEDPEVKFNWYVDGVEVHNAKTKPREEQYNSTYRVVSVLTVLHQDWLNGKEYKCKVSNKALPAPIEKTISKAKGQPREPQVYTLPPSRDELTKNQVSLTCLVKGFYPSDIAVEWESNGQPENNYKTTPPVLDSDGSFFLYSKLTVDKSRWQQGNVFSCSVMHEALHNHYTQKSLSLSPG ? 1.05e+06
